biological target: ZFP SBS#437 (synthetic); assay: EMSA; conditions: tags: MBP fusion
Sequence (chain, as listed by the source): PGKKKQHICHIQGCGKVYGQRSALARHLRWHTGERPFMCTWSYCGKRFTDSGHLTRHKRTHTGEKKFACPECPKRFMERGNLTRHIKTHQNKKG
measure-name: pKd
// returns pKd (minus log10 of molar concentration), number only

For record GACGGCGTA (dsDNA) DNA 1: GACGGCGTA DNA 2: TACGCCGTC the listed pKd is 6.93

Source listed as patent US20030068675.
